Where do the numbers come from? From paper PMC6556873.

- run-description: in vitro
- Parameters: species or system HB2, CCD841
- condition-details: human, hek293 cells
# strict inequality: viability at 48 h, 10 µM < 90% yields YES, everything else yields NO

compound | assigned-category
Cc1cccc(N(C(=O)CCl)C2C=CS(=O)(=O)C2)c1 (centres unmarked) [PCM-0102579] | YES
Cc1ccc(-n2nc(C)c(NC(=O)CCl)c2C)cc1 [PCM-0102131] | YES
O=C(CCl)NC(=O)c1ccccc1Cl [PCM-0102422] | NO

Problem: For the compound COC(=O)C1Cc2ccccc2CN1C(=O)CCl (centres unmarked) [PCM-0102841] , is viability at 48 h, 10 µM under 90%?
YES

----------
- run-description: in vitro
- Set-up: species or system CCD841, HEK293
- condition-details: human, hb2 cells, read-out: HB-2 Cells Viability (%)
Entries annotated with measured viability at 48 h, 10 µM
Numeric answer only, unit % assumed.

compound | viability at 48 h, 10 µM / %
CC(=O)c1sc(NC(=O)CCl)nc1C [PCM-0102838] | 96
CC(NC(=O)CCl)c1ccc(F)cc1F (centres unmarked) [PCM-0103035] | 77.6
O=C(CCl)N1CCOC1=O [PCM-0102943] | 101
O=C(CCl)NC1(c2ccc3c(c2)OCCO3)CCCC1 [PCM-0102951] | 72.7
CC(=O)c1sc2nc(C)cc(C)c2c1NC(=O)CCl [PCM-0102108] | 103

Entry C=CC(=O)N1CCC2(CC1)CCS(=O)(=O)CC2 [PCM-0102559] has what viability at 48 h, 10 µM?
105

Query: viability at 48 h, 10 µM; subject: CN1CCN(C(=O)CCl)CC1 [PCM-0102921]
102

Which viability at 48 h, 10 µM is listed for C=CC(=O)Nc1ccnn1-c1ccccc1C [PCM-0102643] ?
87.4

I would be grateful if you could share the reported viability at 48 h, 10 µM for O=C(CCl)N1CCCC1c1ccc2c(c1)OCCO2 (centres unmarked) [PCM-0102298] .
5.3

Suppose we examine the compound C=CC(=O)N1CCCC(Cc2nnc3ccccn23)C1 (centres unmarked) [PCM-0102909] ; what viability at 48 h, 10 µM value has been reported?
101

I have this compound here, C=CC(=O)N1CCC(NC(=O)OC(C)(C)C)CC1 [PCM-0102617] , and I need its recorded viability at 48 h, 10 µM.
104

----------
- run-description: in vitro
- Parameters: species or system CCD841, HEK293
- condition-details: human, hb2 cells, read-out: HB-2 Cells Viability (%)
quantity-name: viability at 48 h, 10 µM (%)
The reply should contain only the number, in %.

Report viability at 48 h, 10 µM for O=C(CCl)Nc1ccc(Cl)c(Cl)c1 please.
2

Any idea what viability at 48 h, 10 µM was measured for O=C(CCl)N1CC=C(c2ccccc2)CC1 ?
90.9

Fill in: viability at 48 h, 10 µM of Cl.O=C(CCl)N1CCN(c2cnccn2)CC1 is ___
88.2

Would you mind telling me what viability at 48 h, 10 µM value was observed for O=C(CCl)Nc1ccccc1Cl ?
75.4

----------
- run-description: in vitro
- Set-up: species or system HB2, CCD841
- condition-details: human, hek293 cells
This listing pairs compounds with measured viability at 48 h, 10 µM.
Numeric answer only, unit % assumed.

compound | measured-number
C=CC(=O)N1CCCCC1c1cnn(C)c1 (stereo not drawn) [PCM-0102675] | 88.5
C=CC(=O)N1CCN(c2ccnc(-c3ccccc3)n2)CC1 [PCM-0102515] | 73
CC(NC(=O)CCl)c1ccccc1Cl (stereo not drawn) [PCM-0102110] | 65.7
N#CC(c1ccccc1)N1CCN(C(=O)CCl)CC1 (stereo not drawn) [PCM-0102381] | 31.9
Cc1nc(-c2ccc3c(c2)CCN3C(=O)CCl)cs1 [PCM-0102901] | 1.2

Turning to the following compound.
What does the data say about its viability at 48 h, 10 µM? Entry: N#Cc1ccc(Cl)cc1NC(=O)CCl [PCM-0102700]
64.8

----------
Entries annotated with measured NUDT7
- study-system: NUDT7 (Homo sapiens)
- Construct: residues 14-235, E. coli, pNIC28-Bsa4, N-terminal His6 tag removed by TEV, construct 26672 Da
- Parameters: Intact protein LC/MS covalent labelling, fragments in pools of five, 200 uM each, 4 °C
- condition-details: 24 h, 4 °C, pool of five; 200 µM; covalent
Enter the number alone.

compound | NUDT7
Cc1nn(-c2ccccc2)c(C)c1NC(=O)CCl | 0.09
Cc1ccccc1CN1CCN(C(=O)CCl)CC1.Cl | 0
O=C(CCl)NNC(=O)c1ccco1 | 0
CC(C)(C)OC(=O)CNC(=O)CCl | 0
CNC(=O)NC(=O)CCl | 0

Request - read-out NUDT7 | tested on NUDT7 (Homo sapiens) | compound Cc1ccc(N(C(=O)CCl)C2C=CS(=O)(=O)C2)cc1C (centres unmarked)
0.15

----------
- run-description: in vitro
- Design: species or system CCD841, HEK293
- condition-details: human, hb2 cells, read-out: HB-2 Cells Viability (%)
quantity-name: viability at 48 h, 10 µM (%)
Numbers only; they are read as %.

compound | viability at 48 h, 10 µM, %
CN(CC(F)(F)F)C(=O)CCl [PCM-0102674] | 101

# ---- query compound ----
State the recorded viability at 48 h, 10 µM for this entry: COC(=O)CNC(=O)CCl [PCM-0102906]
87.7

----------
- study-system: NNMT (hNNMT) (Homo sapiens, UniProt P40261)
- Construct: wild type, N-terminal His6 tag kept (no cleavage described), E. coli, construct 31248 Da
- Sequence (P40261 whole entry): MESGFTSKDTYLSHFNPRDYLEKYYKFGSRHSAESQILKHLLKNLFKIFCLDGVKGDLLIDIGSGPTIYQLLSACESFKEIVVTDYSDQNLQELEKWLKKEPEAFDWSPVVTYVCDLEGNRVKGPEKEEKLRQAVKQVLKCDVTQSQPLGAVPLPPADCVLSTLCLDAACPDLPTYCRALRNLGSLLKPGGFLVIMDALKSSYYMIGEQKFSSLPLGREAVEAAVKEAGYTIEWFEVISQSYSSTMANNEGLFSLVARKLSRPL
- Set-up: Intact protein LC/MS covalent labelling, fragments in pools of five, 200 uM each, 4 °C
- condition-details: 24 h, 4 °C, pool of five; 200 µM; covalent
NNMT values by entry
No unit in the answer, only the number.

What does the record list as NNMT for Cl.O=C(CCl)N1CCN(Cc2ccc3c(c2)OCO3)CC1 ?
0

Would you kindly share the measured NNMT for O=C(CCl)NC1CCOc2ccccc21 (centres unmarked) ?
0

----------
- run-description: in vitro
- Design: species or system CCD841, HEK293
- condition-details: human, hb2 cells, read-out: HB-2 Cells Viability (%)
Label fulfilled when viability at 48 h, 10 µM is strictly below 90%; otherwise label not fulfilled.

Below, 2 molecules whose answers are already recorded.
molecule | assigned-category
O=C(CCl)Nc1ccc(Cl)cc1 [PCM-0102120] | fulfilled
C=CC(=O)NCC1=CCCOC1 [PCM-0102448] | not fulfilled

Moving on to the next molecule.
For this molecule, is viability at 48 h, 10 µM lower than 90%? O=C(CCl)NC1CCCCNC1=O (stereo not drawn) [PCM-0102109]
not fulfilled

----------
- study-system: NUDT7 (Homo sapiens, UniProt P0C024)
- Construct: residues 14-235, E. coli, pNIC28-Bsa4, N-terminal His6 tag removed by TEV, construct 26672 Da
- Sequence (P0C024 14-235): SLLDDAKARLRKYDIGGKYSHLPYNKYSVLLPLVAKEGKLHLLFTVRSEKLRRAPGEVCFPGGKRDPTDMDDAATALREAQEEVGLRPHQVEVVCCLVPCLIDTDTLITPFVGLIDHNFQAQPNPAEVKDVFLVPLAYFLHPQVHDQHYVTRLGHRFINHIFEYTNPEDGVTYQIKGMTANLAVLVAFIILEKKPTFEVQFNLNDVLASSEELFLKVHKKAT
- Set-up: Intact protein LC/MS covalent labelling, fragments in pools of five, 200 uM each, 4 °C
- condition-details: 24 h, 4 °C, pool of five; 200 µM; covalent
- Experimental: Incubations were performed at 200 μM for each compound and 2 μM of protein (10 μM for BSA) for 24 h at 4 °C with moderate shaking. […] Following incubation, we used intact protein [compound left out] chromatography/mass spectrometry (LC/MS) to identify the fragments and quantify their labeling (Figure 3A). […]
Examples of molecules with documented NUDT7 follow.
Write the value as a bare number.

molecule | NUDT7
CC(C)C(C)(C#N)NC(=O)CCl (stereo not drawn) [PCM-0102626] | 0

Any idea what its NUDT7 is? The molecule is O=C(CCl)NC1CCS(=O)(=O)C1 (stereo not drawn) [PCM-0102138]
0

I am curious: what NUDT7 value has been reported for N#Cc1cccc(C(=O)NNC(=O)CCl)c1 [PCM-0102857] ?
0

Fill blank: measured NUDT7 of the molecule O=C(CCl)N1CCNCC1.O=C(O)C(F)(F)F [PCM-0102476] is ____.
0

What value of measured NUDT7 is listed for O=C(CCl)Nc1ccc(F)c(F)c1 [PCM-0102328] ?
0

For O=C(CCl)Nc1cccc2ccccc12 [PCM-0102396] , what is its reported NUDT7?
0.12

----------
- study-system: NUDT7 (Homo sapiens)
- Construct: residues 14-235, E. coli, pNIC28-Bsa4, N-terminal His6 tag removed by TEV, construct 26672 Da
- Set-up: Intact protein LC/MS covalent labelling, fragments in pools of five, 200 uM each, 4 °C
- condition-details: 24 h, 4 °C, pool of five; 200 µM; covalent
Decide using NUDT7: a value greater than or equal to 0.05 is satisfied, a smaller one is not satisfied.

compound | assigned-category
Cc1ccc(NC(=O)CCl)cc1C | satisfied
N#Cc1oc2ccccc2c1NC(=O)CCl | satisfied
Cc1noc(NC(=O)CCl)n1 | not satisfied

Hi team, for Cc1ccc(NC(=O)CCl)c(Cl)c1 , is the recorded NUDT7 at or above 0.05?
satisfied

Tell me whether NUDT7 is at least 0.05 here: C=CC(=O)NCC1(O)CCCC(C(F)(F)F)C1 (centres unmarked)
not satisfied

Reported NUDT7 at or above 0.05? Cc1ccccc1C(=O)NC1CCN(C(=O)CCl)CC1
not satisfied
